System: U251 CNS
runDescription: NCI-60 one-dose screen, 48 h (100 = growth as untreated, 0 = no growth, -100 = all killed)
experimentalContext: 10 µM unless noted
About 83,000 compounds went through this panel and 20% of them were active in at least one assay; those are over-represented in the sample as a whole.
Threshold 30%. growth below it: met. growth at it or above: not met.

# compound, labelValue
data = [
    ("COC(=O)CCC1=C(C)/C(=C/c2[nH]c(-c3ccc[nH]3)cc2OC)N=C1C", "met"),
    ("O=C1N(C2CCCCC2)C(=O)N1C1CCCCC1", "not met"),
    ("O=C(O)C(=O)O", "not met"),
    ("O=[P@@]1(c2ccccc2)O[C@H](COCc2ccccc2)[C@@H](OCc2ccccc2)[C@H](OCc2ccccc2)[C@H]1NCc1ccccc1", "met"),
    ("COc1ccc2nc(-c3ccc(-n4cncc4-c4ccc(OC)c(N)c4)cc3)sc2c1", "not met"),
    ("Clc1ccc(-c2nc(-c3cccs3)no2)c(Cl)c1", "not met"),
    ("Clc1cc(Cl)c(OCC#CI)cc1Cl", "not met"),
    ("COc1ccc(C2CC(c3cccc(Nc4ccnc5cc(Cl)ccc45)c3)=NN2C=O)cc1 (stereo not drawn)", "met"),
    ("O=C1CC(=O)N(c2ccccc2)O1", "not met"),
    ("Cc1ccc(C=C2C(Cl)=C(Cl)C(Cl)=C2Cl)cc1", "met"),
    ("NC(N)=N/N=C(/c1ccccc1)c1ccc(Cl)cc1", "not met"),
    ("O=C(/C=C/c1ccccc1Cl)c1ccc(O)cc1", "not met"),
    ("c1cnc2ccc3ncccc3c2c1", "not met"),
    ("Cc1cc(NC(=O)c2ccc(N)cc2)ccc1N=Nc1ccc2c(O)c(N=Nc3ccc(Cl)c(S(=O)(=O)O)c3)c(S(=O)(=O)O)cc2c1", "not met"),
    ("CC(CCC(=O)O)(NC(=O)c1ccc([N+](=O)[O-])cc1)C(=O)O (stereo not drawn)", "not met"),
    ("O=Nc1ccc(O)c(=O)cc1", "met"),
    ("CCOC(Cc1c(N)[nH]c(=S)[nH]c1=O)OCC", "not met"),
    ("Cc1c(C(N)=O)sc2c1c(=O)n(Cc1ccccc1)c1nnc(SCC(=O)Nc3ccc(Cl)cc3)n21", "met"),
    ("Cn1cnc([N+](=O)[O-])c1S(=O)(=O)Oc1ccc(Cl)cc1", "not met"),
    ("CCCCN(CCCC)CCCOC(=O)c1ccc(N)cc1", "not met"),
    ("O=Cc1c[nH]c2ccc(NC(=O)OCc3ccccc3)cc12", "not met"),
    ("Cc1c(NCc2nnc3n(Cc4ccccc4)c(=O)c4c5c(sc4n23)CCCC5)c(=O)n(-c2ccccc2)n1C", "not met"),
    ("COc1cccc(C2C(C#N)=C(N)Oc3cc(OC)ccc32)c1 (stereo not drawn)", "met"),
]

Attribution: PubChem BioAssay (NCI)
